Recorded values, source ChEMBL document CHEMBL3124873.

assay: Oral bioavailability in Sprague-Dawley rat at 2 mg/kg by LC/MS analysis; assay type: ADME, organism-based; details: in vivo
Observable: bioavailability (%)
Expressed in %, but write only the number.

Reference set, count: 2
1. CN1CCN([C@H]2CC[C@@H](C(=O)Nc3ccc(-c4cc(F)cc(F)c4)cn3)CC2)C1=O ... 110
2. O=C1CCCN1[C@H]1CC[C@@H](C(=O)Nc2ccc(-c3cc(F)cc(F)c3)cn2)CC1 ... 110

// bioavailability value for `O=C1OCCN1[C@H]1CC[C@@H](C(=O)Nc2ccc(-c3cc(F)cc(F)c3)cn2)CC1` : 83

====

test system: Liver microsome; experiment: Intrinsic clearance in rat pooled liver microsomes at 1 uM by LC/MS analysis; type: ADME
Observable: CLH
Could you write the number and then its unit?

Reference set, count: 3
1) O=C1CCCN1[C@H]1CC[C@@H](C(=O)Nc2ccc(-c3cc(F)cc(F)c3)cn2)CC1 ... 12 mL/min
2) CCN1CCN([C@H]2CC[C@@H](C(=O)Nc3ccc(-c4cc(F)cc(F)c4)cn3)CC2)C1=O ... 17 mL/min
3) CC(C)(C)C1CN([C@H]2CC[C@@H](C(=O)Nc3ccc(-c4cc(F)cc(F)c4)cn3)CC2)C(=O)O1 (mixture of isomers) ... 25 mL/min

// CLH value for `O=C1NCCN1[C@H]1CC[C@@H](C(=O)Nc2ccc(-c3cc(F)cc(F)c3)cn2)CC1` : 37 mL/min

// CLH value for `C[C@@H]1CN([C@H]2CC[C@@H](C(=O)Nc3ccc(-c4cc(F)cc(F)c4)cn3)CC2)C(=O)O1` : 7 mL/min

// CLH value for `CN1CCN([C@H]2CC[C@@H](C(=O)Nc3ccc(-c4cc(F)cc(F)c4)cn3)CC2)C1=O` : 8.8 mL/min

// CLH value for `O=C1N(C2CC2)CCN1[C@H]1CC[C@@H](C(=O)Nc2ccc(-c3cc(F)cc(F)c3)cn2)CC1` : 8.4 mL/min

// CLH value for `O=C1CCCN1[C@H]1CC[C@@H](C(=O)Nc2cnc(-c3cc(F)cc(F)c3)cn2)CC1` : 9.5 mL/min

====

assay: Plasma concentration in femoral artery cannulated Sprague-Dawley rat at 10 mg/kg, po after 1 hr by LC/MS/MS analysis; format: ADME, organism-based; design: dose 10 mg/kg, route oral
Observable: concentration at 1 h (nM)
Expressed in nM, but write only the number.

Reference set, count: 3
1) O=C1OCCN1[C@H]1CC[C@@H](C(=O)Nc2ccc(-c3cc(F)cc(F)c3)cn2)CC1 ... 3000
2) O=C1CCCN1[C@H]1CC[C@@H](C(=O)Nc2ncc(-c3cc(F)cc(F)c3)cn2)CC1 ... 2800
3) O=C1CCCN1[C@H]1CC[C@@H](C(=O)Nc2ccc(-c3cc(F)cc(F)c3)cn2)CC1 ... 2800

// concentration at 1 h value for `CN1CCN([C@H]2CC[C@@H](C(=O)Nc3ccc(-c4cc(F)cc(F)c4)cn3)CC2)C1=O` : 5000

// concentration at 1 h value for `O=C1NCCN1[C@H]1CC[C@@H](C(=O)Nc2ccc(-c3cc(F)cc(F)c3)cn2)CC1` : 6800

====

system: Rattus norvegicus; assay: AUC (0 to infinity) in Sprague-Dawley rat at 2 mg/kg, po by LC/MS analysis; assay type: ADME, organism-based, Plasma; set-up: time infinity, dose 2 mg/kg, route oral; conditions: in vivo
Observable: AUC

1. O=C1OCCN1[C@H]1CC[C@@H](C(=O)Nc2ccc(-c3cc(F)cc(F)c3)cn2)CC1 ... 2000 ng·h/mL
2. O=C1CCCN1[C@H]1CC[C@@H](C(=O)Nc2ccc(-c3cc(F)cc(F)c3)cn2)CC1 ... 4300 ng·h/mL

Then there is this molecule:
Record for `CN1CCN([C@H]2CC[C@@H](C(=O)Nc3ccc(-c4cc(F)cc(F)c4)cn3)CC2)C1=O` under target or system Rattus norvegicus: AUC reported as 4100 ng·h/mL

====

assay: Volume of distribution at steady state in Sprague-Dawley rat at 1 mg/kg, iv and 2 mg/kg, po by LC/MS analysis; type: ADME, organism-based; settings: in vivo, read-out: Vdss
Observable: Vd

Reference set, count: 2
1. O=C1CCCN1[C@H]1CC[C@@H](C(=O)Nc2ccc(-c3cc(F)cc(F)c3)cn2)CC1 ... 3.2 L/kg
2. CN1CCN([C@H]2CC[C@@H](C(=O)Nc3ccc(-c4cc(F)cc(F)c4)cn3)CC2)C1=O ... 2.8 L/kg

Then there is this molecule:
// Vd value for `O=C1OCCN1[C@H]1CC[C@@H](C(=O)Nc2ccc(-c3cc(F)cc(F)c3)cn2)CC1` : 3.4 L/kg

====

assay: Drug uptake in femoral artery cannulated Sprague-Dawley rat brain at 10 mg/kg, po after 1 hr by LC/MS/MS analysis; type: ADME, organism-based; design: dose 10 mg/kg, route oral; settings: read-out: Drug uptake
Observable: concentration at 1 h (µM)
Expressed in µM, but write only the number.

Reference set, count: 4
1) O=C1CCCN1[C@H]1CC[C@@H](C(=O)Nc2ccc(-c3cc(F)cc(F)c3)cn2)CC1 ... 2.8
2) CN1CCN([C@H]2CC[C@@H](C(=O)Nc3ccc(-c4cc(F)cc(F)c4)cn3)CC2)C1=O ... 3.1
3) O=C1NCCN1[C@H]1CC[C@@H](C(=O)Nc2ccc(-c3cc(F)cc(F)c3)cn2)CC1 ... 1.4
4) O=C1CCCN1[C@H]1CC[C@@H](C(=O)Nc2ncc(-c3cc(F)cc(F)c3)cn2)CC1 ... 0.38

// concentration at 1 h value for `O=C1OCCN1[C@H]1CC[C@@H](C(=O)Nc2ccc(-c3cc(F)cc(F)c3)cn2)CC1` : 1.5

====

tested on: Liver microsome; test: Intrinsic clearance in rat pooled liver microsomes at 1 uM by LC/MS analysis; type: ADME
If the reported CLH equals or exceeds 20 mL/min, assign 1. If not, assign -1.

Consider the worked cases shown below.
1) O=C1OCCN1[C@H]1CC[C@@H](C(=O)Nc2ccc(-c3cc(F)cc(F)c3)cn2)CC1 ... -1
2) C[C@H]1CN([C@H]2CC[C@@H](C(=O)Nc3ccc(-c4cc(F)cc(F)c4)cn3)CC2)C(=O)O1 ... -1
3) O=C1NCCCN1[C@H]1CC[C@@H](C(=O)Nc2ccc(-c3cc(F)cc(F)c3)cn2)CC1 ... -1
4) CN1CCCN([C@H]2CC[C@@H](C(=O)Nc3ccc(-c4cc(F)cc(F)c4)cn3)CC2)C1=O ... -1

// next entry
I'd appreciate it if you could say whether `O=C1CCCN1[C@H]1CC[C@@H](C(=O)Nc2ncc(-c3cc(F)cc(F)c3)cn2)CC1` has CLH at least equal to 20 mL/min.
1

====

Here's a batch of compounds along with measured Ki for Neuropeptide Y receptor type 5 (Homo sapiens).
Expressed in nM, but write only the number.

1. C[C@@H]1CN([C@H]2CC[C@@H](C(=O)Nc3ccc(-c4cc(F)cc(F)c4)cn3)CC2)C(=O)O1 ... 3
2. CC(C)N1CCN([C@H]2CC[C@@H](C(=O)Nc3ccc(-c4cc(F)cc(F)c4)cn3)CC2)C1=O ... 41
3. O=C1CCCN1[C@H]1CC[C@@H](C(=O)Nc2cnc(-c3cc(F)cc(F)c3)cn2)CC1 ... 6

Then there is this compound:
Record for `O=C1CCCCN1[C@H]1CC[C@@H](C(=O)Nc2ccc(-c3cc(F)cc(F)c3)cn2)CC1` under target or system Neuropeptide Y receptor type 5 (Homo sapiens): Ki reported as 2

====

# reported CLH; entries follow
system: Liver microsome; assay: Intrinsic clearance in human pooled liver microsomes at 1 uM by LC/MS analysis; type: ADME
Expressed in L/min, but write only the number.

1) O=C1NCCCN1[C@H]1CC[C@@H](C(=O)Nc2ccc(-c3cc(F)cc(F)c3)cn2)CC1 ... 1.1

// CLH value for `CN1CCCN([C@H]2CC[C@@H](C(=O)Nc3ccc(-c4cc(F)cc(F)c4)cn3)CC2)C1=O` : 1.1

// CLH value for `O=C1CCCN1[C@H]1CC[C@@H](C(=O)Nc2cnc(-c3cc(F)cc(F)c3)cn2)CC1` : 0.9

// CLH value for `CN1CCN([C@H]2CC[C@@H](C(=O)Nc3ccc(-c4cc(F)cc(F)c4)cn3)CC2)C1=O` : 0.8
